Biological target: HDAC3 (Homo sapiens)
Construct: purchased Enzo Life Sciences
Sequence (O15379 whole entry): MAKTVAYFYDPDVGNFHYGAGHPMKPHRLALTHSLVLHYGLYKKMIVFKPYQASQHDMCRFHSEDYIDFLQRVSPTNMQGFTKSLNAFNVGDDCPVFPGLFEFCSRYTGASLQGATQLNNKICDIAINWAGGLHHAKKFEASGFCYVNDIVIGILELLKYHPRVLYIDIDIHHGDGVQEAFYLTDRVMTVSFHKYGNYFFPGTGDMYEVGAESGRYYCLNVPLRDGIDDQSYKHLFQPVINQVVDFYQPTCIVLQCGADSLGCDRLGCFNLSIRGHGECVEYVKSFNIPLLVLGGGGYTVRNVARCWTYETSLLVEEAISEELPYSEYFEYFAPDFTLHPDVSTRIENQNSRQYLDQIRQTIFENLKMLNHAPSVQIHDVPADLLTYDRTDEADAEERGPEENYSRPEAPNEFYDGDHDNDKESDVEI
Sequence (O75376 395-489 partner limits assumed): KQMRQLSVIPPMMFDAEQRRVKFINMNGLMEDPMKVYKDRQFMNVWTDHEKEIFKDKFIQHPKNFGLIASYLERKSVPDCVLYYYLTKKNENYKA
Test: HDAC Inhibition Screening Assay (FLUOR DE LYS Fluorimetric Drug Discovery Kit), HDAC3
Assay type: biochemical
Conditions: 10 μM compound
Recorded Endpoint: inhibition at 10 µM

Here are 6 compounds together with their reported answers.
Nc1ccccc1NC(=O)c1ccc(COc2ccc3c(c2)CC/C(=C\c2cc(C(F)(F)F)cc(C(F)(F)F)c2)C3=O)cc1 [Compound 66]; < 50%
O=C(/C=C/c1ccc2c(c1)CCC2NCCC(=O)Nc1cc(C(F)(F)F)cc(C(F)(F)F)c1)NO (stereo not shown) [Compound 50]; > 80%
O=C(/C=C/c1ccc2c(c1)CCCC2OCc1cc(C(F)(F)F)cc(C(F)(F)F)c1)NO (stereo not shown) [Compound 36]; 50 to 80%
O=C(/C=C/c1ccc(COc2ccc3c(c2)CCC(Cc2cc(C(F)(F)F)cc(C(F)(F)F)c2)C3=O)cc1)NO (stereo not shown) [Compound 73]; < 50%
O=C(CCCCCCC(=O)NC1CCc2cc(Br)ccc21)NO (stereo not shown) [Compound 40]; > 80%
Nc1cc(F)ccc1NC(=O)/C=C/c1ccc2c(c1)CCC2NCCC(=O)Nc1cc(C(F)(F)F)cc(C(F)(F)F)c1 (stereo not shown) [Compound 49]; < 50%

Now consider a different compound.
Data request: Param item = O=C(/C=C/c1ccc2c(c1)CCC2NC(=O)c1ccc(F)cc1)NCCCCCC(=O)NO (stereo not shown) [Compound 32] ; retrieve measured inhibition at 10 µM.
Data returned: > 80%
